All figures here come from ChEMBL document CHEMBL3507680.

- PROCEDURE_SUMMARY: Human HepG2 cell viability assay in 384 well format
- Assay type: toxicity, cell-based
- Set-up: dose 125 nL, time 70.5 hour; concentration not given beside the values
- TEST_CONTEXT: HepG2 cells, read-out: Inhibition
PROPERTY: cytotoxicity at 70.5 h (%)
The answer is to be given in %; state only the numeric part.

Study these solved cases before continuing.
{"COMPOUND": "CNc1cncc(C2CCCN2Cc2ccccc2OCC(=O)O)n1 (configuration not stated)", "cytotoxicity at 70.5 h (%)": -8.8}
{"COMPOUND": "O=C(CCc1ccncc1)Nc1ccc(OCC2CCOCC2)cc1", "cytotoxicity at 70.5 h (%)": -13.6}
{"COMPOUND": "CC(C)(C)CC(NC(=O)N1CCS(=O)(=O)CC1)C(F)(F)F (configuration not stated)", "cytotoxicity at 70.5 h (%)": -4.28}
{"COMPOUND": "Cn1ccnc1CN1CCCN(C(=O)c2ccc3[nH]nnc3c2)CC1", "cytotoxicity at 70.5 h (%)": -4.07}
{"COMPOUND": "CC(C)c1nnc2n1CCN(C(=O)c1cc(Cl)c[nH]1)C2", "cytotoxicity at 70.5 h (%)": 0.408}

IN: Which measured cytotoxicity at 70.5 h value corresponds to `COc1ccc(C(=O)N2CCN(c3cc(CCN)nc(C)n3)CC2)cc1` ?
OUT: -0.395

IN: What cytotoxicity at 70.5 h value was documented for this compound, COc1ccc(F)cc1C(=O)N1CCCC(CNS(C)(=O)=O)C1 (configuration not stated) ?
OUT: 1.51

IN: GET /values?readout=cytotoxicity at 70.5 h&item= CC(NC(=O)NCCCn1cncn1)c1ccc2c(c1)CC(=O)N2 (configuration not stated)
OUT: -1.37

IN: Which cytotoxicity at 70.5 h reading was recorded for the compound `CCO[C@@H]1CO[C@@]2(CCCN(Cc3scnc3C)C2)C1` ?
OUT: -11.1

IN: Look up cytotoxicity at 70.5 h: `COc1cccn(CC(=O)N(C)CCC2CCOCC2)c1=O`
OUT: 25

IN: I would be grateful if you could share the reported cytotoxicity at 70.5 h for `Oc1nc(N2CCCC2)nc2c1CCN(Cc1ccsc1)CC2` .
OUT: -8.09

IN: Data request, read-out cytotoxicity at 70.5 h, for c1cc(CN2CCOCC3(C2)CN(Cc2nccs2)CCO3)ccn1 (configuration not stated)
OUT: 17.5
